For each record, write down the corresponding melting point.

Here are 5 molecules together with their reported answers.
> print(dat)
                                   molecule  reported.result
1  CCc1cc(NCc2ccc(OCc3ccccc3)cc2)c2cc(OC)ccc2n1 [Compound 9aa]    118 to 120 °C
2  Cc1cc(NCc2ccc(OCc3ccc(F)cc3)cc2)c2cc(Cl)ccc2n1 [Compound 9i]    170 to 172 °C
3  CCc1cc(NCc2ccc(OCc3ccc(Cl)cc3)cc2)c2cc(Br)ccc2n1 [Compound 9t]    122 to 124 °C
4  COc1ccc2nc(C)cc(NCc3ccc(OCc4ccc(F)c(F)c4)cc3)c2c1 [Compound 9y]    104 to 106 °C
5  Cc1cc(NCc2ccc(OCc3ccc(F)cc3)cc2)c2cc(Br)ccc2n1 [Compound 9o]    173 to 175 °C

// input: 4 molecules below; output: melting point for each
1. Cc1cc(NCc2ccc(OCc3ccc(Cl)cc3)cc2)c2cc(Br)ccc2n1 [Compound 9n]
2. COc1ccc2nc(C)cc(NCc3ccc(OCc4ccc(F)cc4)cc3)c2c1 [Compound 9x]
3. Cc1cc(NCc2ccc(OCc3ccccc3)cc2)c2cc(Cl)ccc2n1 [Compound 9g]
4. Cc1cc(NCc2ccc(OCc3ccccc3)cc2)c2ccccc2n1 [Compound 9a]

// result
1. 184 to 186 °C
2. 141 to 143 °C
3. 165 to 167 °C
4. 134 to 136 °C

----------
Assay: Cellular viability of HepG2 cells (MTT and neutral red uptake)
Type: cell-based
Details: human, HepG2 cells; MTT method, 72 h
MEASURE_NAME: CC50 at 72 h

> print(dat)
                                   molecule  reported.result
1  Cc1cc(NCc2ccc(OCc3ccc(Cl)cc3)cc2)c2cc(Br)ccc2n1 [Compound 9n]        > 3000 nM

// query For the molecule Cc1cc(NCc2ccc(OCc3ccc(F)cc3)cc2)c2cc(Br)ccc2n1 [Compound 9o] , what CC50 at 72 h is on record?
// result > 3000 nM

----------
Test system: Vero cells
Assay: Cellular viability of Vero cells (MTT and neutral red uptake)
Format: cell-based
Conditions: neutral red method, 72 h
MEASURE_NAME: CC50

> print(dat)
                            smiles.notation  subject.of.test  measure.name  reported.result
1  Cc1cc(NCc2ccc(OCc3ccc(Cl)cc3)cc2)c2cc(Br)ccc2n1       Vero cells          CC50        > 3000 nM

Proceeding to the next molecule to report its CC50.
// query Kindly state the measured CC50 obtained for Cc1cc(NCc2ccc(OCc3ccc(F)cc3)cc2)c2cc(Br)ccc2n1 with Vero cells.
// result > 3000 nM

----------
For each record, write down the corresponding Papp at 5 h, 10 µM.
Assay: in vitro
Format: in vitro ADME
Settings: PAMPA, pH 7.4

> print(dat)
                                   compound        measure.name  reported.result
1  Cc1cc(NCc2ccc(OCc3ccc(F)cc3)cc2)c2cc(Br)ccc2n1 [Compound 9o]  Papp at 5 h, 10 µM     3 ×10⁻⁶ cm/s

Proceeding to the next compound to report its Papp at 5 h, 10 µM.
// query For the compound Cc1cc(NCc2ccc(OCc3ccc(Cl)cc3)cc2)c2cc(Br)ccc2n1 [Compound 9n] , what Papp at 5 h, 10 µM is on record?
// result 0.3 ×10⁻⁶ cm/s

Numbers sourced from paper PMC9027910.
